What pKi was measured for each of the following?
target: human MOP receptor (Homo sapiens)
Sequence (P35372 whole entry): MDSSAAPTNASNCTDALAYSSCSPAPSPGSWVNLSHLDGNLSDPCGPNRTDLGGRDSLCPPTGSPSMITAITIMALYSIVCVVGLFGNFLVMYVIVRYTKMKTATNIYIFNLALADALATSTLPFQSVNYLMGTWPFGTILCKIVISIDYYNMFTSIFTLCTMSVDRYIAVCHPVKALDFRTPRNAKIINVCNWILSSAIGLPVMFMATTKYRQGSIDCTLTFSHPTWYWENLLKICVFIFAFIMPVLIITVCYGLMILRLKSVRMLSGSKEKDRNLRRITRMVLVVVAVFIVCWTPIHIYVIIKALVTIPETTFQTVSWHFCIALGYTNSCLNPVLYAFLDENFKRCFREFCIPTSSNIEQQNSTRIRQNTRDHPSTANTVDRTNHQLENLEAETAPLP
Give bare numbers, as −log10 of the molar value.

Consider the worked cases shown below.
Request: Please look at Cl.Oc1ccc(CCN(CCc2cccc(O)c2)CC2CC2)cc1 [Compound 17] and tell me its recorded pKi on human MOP receptor (Homo sapiens).
Response: 6.34

Request: Please look at Cl.Oc1cccc(CCN(CCc2cccc(O)c2)CC2CCCC2)c1 [Compound 12] and tell me its recorded pKi on human MOP receptor (Homo sapiens).
Response: 6.23

Request: Please look at Cl.Oc1cccc(CCN(CCc2ccccc2)CC2CCCCC2)c1 [Compound 4] and tell me its recorded pKi on human MOP receptor (Homo sapiens).
Response: 6.27

Request: Please look at Cl.Oc1cccc(CCN(CCc2cccc(O)c2)CC2CCCCC2)c1 [Compound 11] and tell me its recorded pKi on human MOP receptor (Homo sapiens).
Response: 6.78

The record that follows has no pKi shown yet.
Request: Please look at Cl.Oc1cccc(CCN(CCc2cccc(O)c2F)CC2CCC2)c1 [Compound 20] and tell me its recorded pKi on human MOP receptor (Homo sapiens).
Response: 6.25
